B1: PTPN9 (parent)
chain: ILFSLPPALDWDSVHVPGPHAMTI

# Variants of: B1
# test-method-notes: protein stability index of a GFP-peptide fusion (GPS, HEK-293T) (PSI 1-6); higher = more stable;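 further: lentivirally expressed fusions sorted by FACS into six bins by GFP to DsRed ratio, PSI derived from sequencing read proportions per bin multiplied by bin number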
# test-settings: c terminus: a fixed tail appended
Catalogue of protein stability index values
Could you respond with only the numeric value?

Answered examples (5):
alteration | reported-value
V16L | 2.68
S13R | 3.77
S4T | 2.17
S4Q | 3.13
A8G | 2.36

Ask: Entry L9N : reported protein stability index = ?
Reply: 2.8

Ask: Entry V16F has what protein stability index?
Reply: 2.42

Ask: I'd like to know its protein stability index. The variant in question is P6K
Reply: 1.97

Ask: Need protein stability index of V16A , thanks.
Reply: 1.93

Ask: # protein stability index lookup, item P7H
Reply: 4.13
